B1: TNXB (parent)
chain: LLQRELMVPGTRHSAVLRDLRSGT

Variants of: B1
Experiment: protein stability index of a GFP-peptide fusion (GPS, HEK-293T) (PSI 1-6); higher = more stable;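 also: lentivirally expressed fusions sorted by FACS into six bins by GFP to DsRed ratio, PSI derived from sequencing read proportions per bin multiplied by bin number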
Details: c terminus: a fixed tail appended
measurement label: protein stability index

Here's what some known entries look like.
[[record]]
residue_change = "R21I"
measurement_label = "protein stability index"
observed = 2.13

[[record]]
residue_change = "L2M"
measurement_label = "protein stability index"
observed = 2.28

[[record]]
residue_change = "R18D"
measurement_label = "protein stability index"
observed = 2.83

[[record]]
residue_change = "G10N"
measurement_label = "protein stability index"
observed = 2.75

[[record]]
residue_change = "P9A"
measurement_label = "protein stability index"
observed = 2.35


# batch size: 6; output protein stability index per entry
1. R4I
2. M7E
3. R4P
4. V8L
5. R21K
6. S14R

Completion:
[2.3, 3.61, 2.77, 2.35, 3.03, 2.45]

# batch size: 6; output protein stability index per entry
1. G23H
2. G10Y
3. G23V
4. L1C
5. L1R
6. S14G

Completion:
1: 2.31; 2: 1.09; 3: 2.13; 4: 2.38; 5: 3.04; 6: 2.63

# batch size: 6; output protein stability index per entry
1. L17K
2. R21Y
3. L6M
4. R18S
5. G10K
6. V8K

Completion:
1. 3.75
2. 2.12
3. 2.49
4. 2.61
5. 2
6. 2.46
